# System: Yap1 mRNA
# Measurement description: Antisense inhibition of human Yap1 in A-431 cells by cEt gapmers, single dose (Example 3, RTS36584)
# Assay type: cell-based
# Experimental context: Table 29; Yap1 mRNA as percent of untreated control; 3-10-3 cEt gapmers targeting SEQ ID NO.: 1, and 2
Strand notation (5' to 3'): a small letter for the sugar, then the base; units joined by * are phosphorothioate-linked, units joined directly phosphodiester-linked; [ ] holds rarer units or linkages, { } end groups; capitals alone tell only the bases. k = constrained ethyl (cEt); [5mC] = 5-methylcytosine; d = 2'-deoxy (DNA)
Quantity: YAP1 (% UTC)
Answers are plain numbers, in % UTC.

Recorded results for 4 substances are shown here.
Task: Given 1075759 (k[5mC]*k[5mC]*kT*dT*dA*dT*dA*dA*dA*dT*dT*dA*dT*kG*kA*k[5mC]; antisense) [compound 1075759] , state its recorded YAP1 (% UTC).
Output: 44

Task: Given 1075311 (antisense kA*kG*kT*dA*dA*dT*dT*dA*dA*dA*d[5mC]*dG*dA*kA*kA*k[5mC]) [compound 1075311] , state its recorded YAP1 (% UTC).
Output: 100

Task: Given 1074671 (antisense k[5mC]*kA*kA*dG*dT*dA*dG*d[5mC]*dT*dT*dT*dG*dA*kT*k[5mC]*kT) [compound 1074671] , state its recorded YAP1 (% UTC).
Output: 8

Task: Given 1076175 (k[5mC]*kA*kA*dT*dA*dG*dG*dT*dA*dA*d[5mC]*dA*dG*kG*kT*kA; antisense) [compound 1076175] , state its recorded YAP1 (% UTC).
Output: 15

Below are 2 substances. Give each one its YAP1 (% UTC).
1. 1074447 (kA*kA*kT*dG*dA*dT*dA*dG*d[5mC]*dA*d[5mC]*dT*dA*kG*kG*kA; antisense) [compound 1074447]
2. 1076047 (kA*k[5mC]*kT*dT*dA*dA*dA*dT*dG*dG*dT*dG*d[5mC]*kA*kA*kT; antisense) [compound 1076047]

Output:
[4, 34]
